# stated-conditions: Ebola virus entry assay, ratio channel
Active and inactive are the calls of the source.
Labels: 1 = active, 0 = inactive

# compound, label-value
rows = [
    ("CC[C@H]1C[C@@H]2C[C@H]3c4[nH]c5ccc(OC)cc5c4CCN(C2)[C@@H]13", 1),
    ("Cc1ccc(/C(=C\\CN2CCCC2)c2ccccn2)cc1", 1),
    ("O=c1c(-c2ccccc2)c1-c1ccccc1", 1),
    ("C=CCCCCCCCCC(=O)O", 0),
    ("N/C(=N\\N=C\\c1ccc(Cl)cc1)N/N=C/c1ccc(Cl)cc1", 0),
    ("CN1CCN(C2=Nc3ccccc3Sc3ccc(Cl)cc32)CC1", 0),
    ("OC(CCCN1CCCCC1)(c1ccccc1)c1ccccc1", 1),
    ("CCN[C@H]1C[C@H](C)S(=O)(=O)c2sc(S(N)(=O)=O)cc21", 0),
    ("CC1(C)O[C@@H]2C[C@H]3[C@@H]4C[C@H](F)C5=CC(=O)CC[C@]5(C)[C@H]4[C@@H](O)C[C@]3(C)[C@]2(C(=O)CO)O1", 0),
    ("CC(C(O)c1ccccc1)N(C)CCOC(c1ccccc1)c1ccccc1 (stereo not given)", 1),
    ("O=C(NCCc1c[nH]c2ccccc12)c1cccnc1", 0),
    ("CN(C)CCOC(c1ccccc1)c1ccccc1", 1),
    ("COC(=O)[C@@H](N)Cc1ccc(O)c(O)c1", 0),
    ("Cc1cccc(OCC(O)CNC(C)(C)C)c1C (stereo not given)", 0),
    ("O=C(CN1CCN(Cc2ccc3c(c2)OCO3)CC1)N1c2ccccc2Sc2ccccc21", 1),
    ("CCOC(=O)c1ncn2c1CN(C)C(=O)c1c(I)cccc1-2", 0),
    ("OC(C#CCN1CCCC1)(c1ccccc1)c1ccccc1", 0),
    ("NCC1CCC(C(=O)Oc2ccc(CCC(=O)O)cc2)CC1 (stereo not given)", 0),
    ("O=C(O)Cc1ccccc1", 0),
    ("CC(C)(C)C(=O)OCOC(=O)C1N2C(=O)CC2S(=O)(=O)C1(C)C (stereo not given)", 1),
    ("CCCS(=O)c1ccc2nc(NC(=O)OC)[nH]c2c1 (stereo not given)", 0),
    ("O=C(CCCN1CCC(O)(c2cccc(C(F)(F)F)c2)CC1)c1ccc(F)cc1", 1),
    ("C[C@]12CC[C@H]3[C@@H](CC=C4C[C@@H](O)CC[C@@]43C)[C@@H]1CC[C@@H]2O", 0),
    ("Cn1cnc2c1c(=O)[nH]c(=O)n2C", 0),
    ("CCc1cc(Cl)c(OC)c(C(=O)NC[C@@H]2CCCN2CC)c1O", 1),
    ("Cc1cc(NC(=O)C2=C(O)c3ccccc3S(=O)(=O)N2C)no1", 0),
    ("CCOC(=O)COc1ccc2c(C)c(CCN(CC)CC)c(=O)oc2c1Cl", 1),
    ("CN(C)C(=S)SC(=S)N(C)C", 1),
    ("CC(=O)CCC(=O)O", 0),
    ("O=Cc1ccccc1C=O", 0),
    ("C=CCOc1cc(Cl)ccc1C(=O)NCCN(CC)CC", 1),
    ("C[C@@]12C(=O)OC(=O)[C@]1(C)C1CCC2O1", 1),
    ("CCCCNc1c(C(=O)OCC)c(C)nc2c1cnn2CC", 1),
    ("CC(CC(C#N)(c1ccccc1)c1ccccc1)N(C)C (stereo not given)", 1),
    ("C[C@@H]1C[C@H]2[C@@H]3C[C@H](F)C4=CC(=O)C(Cl)=C[C@]4(C)[C@@]3(F)[C@@H](O)C[C@]2(C)[C@@]1(O)C(=O)CO", 0),
]

---

# Tested on: CRL-7250
# test-protocol: Cytotoxic Profiling of Annotated Libraries Using Quantitative High-Throughput Screening (AID 1296008); note: % is set by controls: 0 for no effect and ±100 for the full control effect; nearly all actives have a fitted effect of over 60% in size
# stated-conditions: Five cell lines viability, CellTiter-Glo ATP luminescence, 48-72 h; stronger effect = lower value
Records with an inconclusive call do not appear.
# Lookup of reported max response keyed by entry

# molecule, max response [%]
records = [
    ("Nc1ccccc1C(=O)OCC(O)CO (stereo not drawn)", 1.8),
    ("CC1N=C(N)OC1c1ccccc1 (stereo not drawn)", -30.4),
    ("ClC1=C(Cl)C2(Cl)C(CBr)CC1(Cl)C2(Cl)Cl (stereo not drawn)", -0.0053),
    ("CC1COC2(c3ccccc3Cl)c3cc(Cl)ccc3NC(=O)CN12 (stereo not drawn)", -0.632),
    ("COc1ccc(CN2CCNCC2)c(OC)c1OC", 0.0195),
    ("CC(Cc1ccc2c(c1)OCO2)NO (stereo not drawn)", -0.759),
    ("Oc1c(Br)cc(Br)cc1Br", -10.6),
    ("CCN1CCCC1CNC(=O)C(O)(c1ccccc1)c1ccccc1 (stereo not drawn)", -23.4),
]

---

# System: HaCat
# test-protocol: Cytotoxic Profiling of Annotated Libraries Using Quantitative High-Throughput Screening (AID 1296008); note: % is set by controls: 0 for no effect and ±100 for the full control effect; nearly all actives have a fitted effect of over 60% in size
# stated-conditions: Five cell lines viability, CellTiter-Glo ATP luminescence, 48-72 h; stronger effect = lower value
Records with an inconclusive call do not appear.

# molecule, unit-string, max response
data = [
    ("CC[C@H]1C[C@@H]2C[C@H]3c4[nH]c5ccc(OC)cc5c4CCN(C2)[C@@H]13", "%", -4.77),
    ("CC(CC(C#N)(c1ccccc1)c1ccccc1)N(C)C (centres undefined)", "%", -5.96),
    ("CC(Cc1ccccc1)NCc1ccccc1Cl (centres undefined)", "%", -41.8),
    ("C[C@H](CN1CCOCC1)C(C(=O)N1CCCC1)(c1ccccc1)c1ccccc1", "%", -13.3),
    ("COc1ccc2[nH]cc(CCN(C(C)C)C(C)C)c2c1", "%", 1.43),
    ("CC(CC(C(N)=O)(c1ccccc1)c1ccccc1)N(C)C (centres undefined)", "%", -10.9),
    ("CN1C(=O)CN=C(c2ccccc2)c2cc(Cl)ccc21", "%", -27.5),
    ("CC(Cc1ccc2c(c1)OCO2)NO (centres undefined)", "%", -1.01),
    ("CC1Sc2c(C(=O)O)c(=O)c3cc(F)c(N4CCNCC4)cc3n21 (centres undefined)", "%", 0.258),
]

---

# stated-conditions: Ebola virus entry assay, ratio channel
The source made the active and inactive calls.
Labels: label 1 for active, label 0 for inactive

# molecule, label-value
records = [
    ("CCOC(=O)C1=C[C@]2(CC)CCCN3CCc4c(n1c1ccccc41)[C@@H]32", "label 1"),
    ("CCN(CC)CC(=O)Nc1c(C)cccc1C(=O)OC", "label 0"),
    ("CCN(CC)CCCN(c1ccccc1)C1Cc2ccccc2C1", "label 1"),
    ("CCC1(c2cccc(O)c2)CCCCN(C)C1 (stereo not given)", "label 0"),
    ("O=C1O[C@H]([C@@H](O)CO)C(O)=C1O", "label 0"),
]

---

# test-protocol: Primary qHTS to identify inhibitors of SARS-CoV-2 cell entry (AID 1645846); note: nearly all actives have a fitted effect of over 45% in size
# stated-conditions: SARS-CoV-2 pseudovirus cell entry assay, luminescence; series mostly up to 57.1 µM
Records with an inconclusive call do not appear. The source made the active and inactive calls. Calls come from the whole dose curve.
Labels: YES for active, NO for inactive

# molecule, label-value
records = [
    ("CCCc1cc(C(N)=S)ccn1", "NO"),
    ("O=C(NN1CCCC1)NS(=O)(=O)c1ccc(Cl)cc1", "NO"),
    ("CCOC(=O)C(C)(C)Oc1ccc(Cl)cc1", "NO"),
    ("C/C=C/C(=O)N(CC)c1ccccc1C", "NO"),
    ("CCC1(c2cccc(O)c2)CCCCN(C)C1 (stereo unspecified)", "NO"),
    ("CNC(=O)Oc1ccc2c(c1)[C@]1(C)CCN(C)[C@@H]1N2C", "NO"),
    ("CO[C@]1(NC(=O)CSC(F)F)C(=O)N2C(C(=O)O)=C(CSc3nnnn3CCO)CO[C@H]21", "NO"),
    ("O=C(OCc1ccccc1)c1ccc(O)cc1", "NO"),
    ("CC(=O)Oc1c(C)c(C)c2c(c1C)CC[C@@](C)(CCC[C@H](C)CCC[C@H](C)CCCC(C)C)O2", "NO"),
    ("CC(CNC1CCCCC1)OC(=O)c1ccccc1 (stereo unspecified)", "NO"),
    ("COc1ccc2c(c1)c(CC(=O)O)c(C)n2C(=O)c1ccc(Cl)cc1", "NO"),
    ("CCCN(CCC)C(=O)C(CCC(=O)OCCCN1CCN(CCOC(=O)Cc2c(C)n(C(=O)c3ccc(Cl)cc3)c3ccc(OC)cc23)CC1)NC(=O)c1ccccc1 (stereo unspecified)", "YES"),
    ("CC(=O)OCC(=O)[C@@]1(O)CCC2C3CCC4=CC(=O)CC[C@]4(C)C3[C@@H](O)C[C@@]21C (stereo partly specified)", "NO"),
    ("C[C@H]1C[C@H]2[C@@H]3CCC4=CC(=O)C=C[C@]4(C)[C@@]3(Cl)[C@@H](O)C[C@]2(C)[C@@]1(O)C(=O)CO", "NO"),
    ("O=C(NOCC1CC1)c1ccc(F)c(F)c1Nc1ccc(I)cc1Cl", "YES"),
    ("C[C@@H]1C[C@H]2[C@@H]3CCC4=CC(=O)C=C[C@]4(C)[C@@]3(F)[C@@H](O)C[C@]2(C)[C@@]1(O)C(=O)COC(=O)c1ccncc1", "NO"),
    ("NS(=O)(=O)c1cc(C(=O)O)c(NCc2ccco2)cc1Cl", "NO"),
    ("CCCCOc1ccc(OCCCN2CCOCC2)cc1", "NO"),
    ("CC(COc1ccccc1)NC(C)C(O)c1ccc(O)cc1 (stereo unspecified)", "NO"),
    ("CCN(CC)C(=O)C1CN2CCc3cc(OC)c(OC)cc3C2CC1OC(C)=O (stereo unspecified)", "NO"),
    ("c1ccc2[nH]c(-c3cscn3)nc2c1", "NO"),
]

// provenance: PubChem BioAssay (NCATS)
